# Test system: Plasmodium falciparum
# Procedure text: Antiplasmodial activity against chloroquine-resistant Plasmodium falciparum W2 infected in human erythrocyte after 48 hrs by flow cytometry
# Type: functional, organism-based
# Condition: Plasmodium falciparum, W2, 48 h; read-out: IC50
Mark yes (1) for IC50 under 6 µM, no (0) if at or over.

Ask: # TODO verify IC50 < 6 µM strictly for this molecule: Cc1ccc(S(=O)(=O)Cc2nc(Nc3ccccc3Cl)c3ccccc3n2)cc1
Reply: no (0)

Ask: What about CC(C)=Cc1nc(Nc2ccc(F)cc2)c2cc([N+](=O)[O-])ccc2n1 ?
Reply: yes (1)

Ask: What about Cc1ccc(S(=O)(=O)Cc2nc(Nc3cccc(C(F)(F)F)c3)c3cc([N+](=O)[O-])ccc3n2)cc1 ?
Reply: yes (1)

Ask: What about Cc1ccc(S(=O)(=O)Cc2nc(Nc3cccc(C(F)(F)F)c3)c3ccccc3n2)cc1 ?
Reply: no (0)

Ask: What about Cc1ccc(S(=O)(=O)Cc2nc(Nc3ccccc3)c3cc([N+](=O)[O-])ccc3n2)cc1 ?
Reply: yes (1)

* * *

Assign pIC50 to each entry below.
# Tested on: Plasmodium falciparum
# Procedure text: Antiplasmodial activity against chloroquine-resistant Plasmodium falciparum W2 infected in human erythrocyte after 48 hrs by flow cytometry
# Type: functional, organism-based
# Condition: Plasmodium falciparum, W2, 48 h; read-out: IC50
Note: pIC50 values are expressed as the negative base-10 logarithm of concentration in M.

Ask: # query: pIC50 of entry Cc1ccc(S(=O)(=O)Cc2nc(Nc3cccc(Cl)c3)c3cc([N+](=O)[O-])ccc3n2)cc1
Reply: 5.89

Ask: What about CC(C)=Cc1nc(Nc2cccc(C(F)(F)F)c2)c2cc([N+](=O)[O-])ccc2n1 ?
Reply: 5.49

Ask: What about CC(C)=Cc1nc(Nc2cccc(Br)c2)c2cc([N+](=O)[O-])ccc2n1 ?
Reply: 5.12

Ask: What about Cc1ccc(S(=O)(=O)Cc2nc(Nc3ccc(F)cc3)c3ccccc3n2)cc1 ?
Reply: 4.70

Ask: What about Cc1ccc(S(=O)(=O)Cc2nc(Nc3ccc(F)cc3)c3cc([N+](=O)[O-])ccc3n2)cc1 ?
Reply: 5.66

Ask: What about Cc1ccc(S(=O)(=O)Cc2nc(Nc3cccc(Br)c3)c3ccccc3n2)cc1 ?
Reply: 4.89

Ask: What about CC(C)=Cc1nc(Nc2ccccc2)c2cc([N+](=O)[O-])ccc2n1 ?
Reply: 4.77

* * *

# Tested on: HepG2
# Procedure text: Cytotoxicity against human HepG2 cells after 72 hrs by MTT assay
# Format: cell-based
# Condition: Homo sapiens, HepG2, 72 h; read-out: IC50
Assay readout: IC50

Ask: Missing value: IC50, HepG2, entry Cc1ccc(S(=O)(=O)Cc2nc(Nc3cccc(C(F)(F)F)c3)c3cc([N+](=O)[O-])ccc3n2)cc1 . Fill in?
Reply: > 100 µM

Ask: What about Cc1ccc(S(=O)(=O)Cc2nc(Nc3ccc(F)cc3)c3ccccc3n2)cc1 ?
Reply: > 15 µM

Ask: What about CC(C)=Cc1nc(Nc2cccc(Br)c2)c2cc([N+](=O)[O-])ccc2n1 ?
Reply: > 15 µM

Ask: What about CC(C)=Cc1nc(Nc2ccc(F)cc2)c2cc([N+](=O)[O-])ccc2n1 ?
Reply: 27 µM

Ask: What about Cc1ccc(S(=O)(=O)Cc2nc(Nc3cccc(Cl)c3)c3cc([N+](=O)[O-])ccc3n2)cc1 ?
Reply: > 100 µM

Ask: What about CC(C)=Cc1nc(Nc2ccccc2)c2cc([N+](=O)[O-])ccc2n1 ?
Reply: 50 µM

Ask: What about COc1cccc2c1C(=O)c1c(O)c3c(c(O)c1C2=O)C[C@@](O)(C(=O)CO)C[C@@H]3O[C@H]1C[C@H](N)[C@H](O)[C@H](C)O1 ?
Reply: 0.2 µM

Ask: What about Cc1ccc(S(=O)(=O)Cc2nc(Nc3cccc(Br)c3)c3ccccc3n2)cc1 ?
Reply: > 15 µM

Ask: What about Cc1ccc(S(=O)(=O)Cc2nc(Nc3ccc(F)cc3)c3cc([N+](=O)[O-])ccc3n2)cc1 ?
Reply: > 50 µM

Ask: What about Cc1ccc(S(=O)(=O)Cc2nc(Nc3ccccc3)c3cc([N+](=O)[O-])ccc3n2)cc1 ?
Reply: > 25 µM

Ask: What about Cc1ccc(S(=O)(=O)Cc2nc(Nc3cccc(C(F)(F)F)c3)c3ccccc3n2)cc1 ?
Reply: > 25 µM

Ask: What about Cc1ccc(S(=O)(=O)Cc2nc(Nc3ccccc3Cl)c3ccccc3n2)cc1 ?
Reply: > 50 µM

Ask: What about CC(C)=Cc1nc(Nc2cccc(C(F)(F)F)c2)c2cc([N+](=O)[O-])ccc2n1 ?
Reply: > 100 µM
